system: Human immunodeficiency virus 1; experiment: Antiviral activity against tenofovir-resistant CXCR4-tropic HIV-1 NL4-3 harboring reverse transcriptase K65R mutant infected in human MT4 cells assessed as inhibition of viral replication inhibition of virus-induced cytopathic effect after 6 days by XTT dye based assay; assay type: functional, cell-based; conditions: Human immunodeficiency virus 1, NL4-3, MT4, 144 h
EC50 under 100 nM gets true (1), anything at or over 100 nM gets false (0).

{"Compound": "CCCCCOC(=O)C[C@H](NP(=O)(CO[C@H](CF)Cn1cnc2c(N)ncnc21)Oc1ccccc1)C(=O)OCCCCC (stereo not given in full)", "Assigned category": "false (0)"}
{"Compound": "Cc1cn([C@H]2C[C@H](N=[N+]=[N-])[C@@H](CO)O2)c(=O)[nH]c1=O", "Assigned category": "true (1)"}
{"Compound": "CC(C)OC(=O)OCOP(=O)(CO[C@H](C)Cn1cnc2c(N)ncnc21)OCOC(=O)OC(C)C.O=C(O)/C=C/C(=O)O [TENOFOVIR DISOPROXIL FUMARATE]", "Assigned category": "false (0)"}

Q. Lab log: compare recorded EC50 with 100 nM; is it strictly lower for CCCCCOC(=O)C[C@H](NP(=O)(CO[C@@H](CF)Cn1cnc2c(=O)[nH]c(N)nc21)Oc1ccccc1)C(=O)OCCCCC (stereo not given in full) ?
A. true (1)

* * *

assay: Selectivity index, ratio of CC50 for human TZM-bl cells to EC50 for CXCR4-tropic HIV-1 NL4-3 infected in human TZM-bl cells; format: toxicity, cell-based; conditions: read-out: Ratio CC50/EC50
Experimental endpoint: selectivity ratio

As a guide, the following entries are already answered.
{"Compound": "CCCCCOC(=O)C[C@H](NP(=O)(CO[C@H](CF)Cn1cnc2c(=O)[nH]c(N)nc21)Oc1ccccc1)C(=O)OCCCCC (some centres undefined)", "selectivity ratio": "> 625"}
{"Compound": "CCCCCOC(=O)C[C@H](NP(=O)(CO[C@@H](CF)Cn1ccc(N)nc1=O)Oc1ccccc1)C(=O)OCCCCC (some centres undefined)", "selectivity ratio": "< 1"}
{"Compound": "Nc1ccn(C[C@@H](CF)OCP(=O)(O)O)c(=O)n1", "selectivity ratio": "> 2"}
{"Compound": "C[C@H](Cn1cnc2c(N)ncnc21)OCP(=O)(O)O [TENOFOVIR ANHYDROUS]", "selectivity ratio": "> 25"}
{"Compound": "CCCCCOC(=O)C[C@H](NP(=O)(CO[C@@H](CF)Cn1cnc2c(=O)[nH]c(N)nc21)Oc1ccccc1)C(=O)OCCCCC (some centres undefined)", "selectivity ratio": "> 1370"}

Q. Give a short answer stating reported selectivity ratio for Nc1nc(O)c2ncn(C[C@@H](CF)OCP(=O)(O)O)c2n1 .
A. > 21

Q. Return value of selectivity ratio for input Nc1ncnc2c1ncn2C[C@H](CF)OCP(=O)(O)O , no commentary.
A. > 3

Q. Respond only with selectivity ratio recorded for Cc1cn(C[C@@H](CF)OCP(=O)(O)O)c(=O)[nH]c1=O
A. > 2

Q. Input Nc1nc(O)c2ncn(C[C@H](CF)OCP(=O)(O)O)c2n1 , output reported selectivity ratio.
A. > 22

* * *

experiment: Selectivity index, ratio of CC50 for human TZM-bl cells to EC50 for CCR5 tropic HIV1 BaL infected in human TZM-bl cells; type: toxicity, cell-based; details: read-out: Ratio CC50/EC50
Experimental endpoint: selectivity ratio

Answered examples (3):
{"Compound": "CCCCCOC(=O)C[C@H](NP(=O)(CO[C@H](CF)Cn1ccc(N)nc1=O)Oc1ccccc1)C(=O)OCCCCC (some centres not stated)", "selectivity ratio": "< 1"}
{"Compound": "CCCCCOC(=O)C[C@H](NP(=O)(CO[C@H](CF)Cn1cc(C)c(=O)[nH]c1=O)Oc1ccccc1)C(=O)OCCCCC (some centres not stated)", "selectivity ratio": "< 1"}
{"Compound": "Nc1ncnc2c1ncn2C[C@@H](CF)OCP(=O)(O)O", "selectivity ratio": "> 15"}

Q. Look up selectivity ratio of CCCCCOC(=O)C[C@H](NP(=O)(CO[C@H](CF)Cn1cnc2c(=O)[nH]c(N)nc21)Oc1ccccc1)C(=O)OCCCCC (some centres not stated) and report it.
A. > 455

Q. Name the recorded selectivity ratio of the item CCCCCOC(=O)C[C@H](NP(=O)(CO[C@H](CF)Cn1cnc2c(N)ncnc21)Oc1ccccc1)C(=O)OCCCCC (some centres not stated) in your answer.
A. 7910

Q. In one line, give reported selectivity ratio of the entry Nc1ccn(C[C@@H](CF)OCP(=O)(O)O)c(=O)n1 .
A. > 1

Q. Entry CCCCCOC(=O)C[C@H](NP(=O)(CO[C@@H](CF)Cn1ccc(N)nc1=O)Oc1ccccc1)C(=O)OCCCCC (some centres not stated) needs its selectivity ratio filled in; supply it.
A. < 1

Q. Given Nc1ccn(C[C@H](CF)OCP(=O)(O)O)c(=O)n1 , respond with its selectivity ratio.
A. 1

Just for reference, ChEMBL document CHEMBL4038313 is where these values come from.
